Target: ALPK1 (Homo sapiens (Human))
Assay: ALPK1 in vitro kinase assay (HTRF of TIFA phosphorylation)
Type: biochemical
For each record, check the reported IC50: if it is below 30 nM write true (1), else write false (0).

Ask | Identify whether the compound "CC(C)(c1ccc(Br)cc1)c1csc(NC(=O)NCc2ccc(OCCN)cc2)n1" records IC50 below 30 nM.
Reply | false (0)

Ask | Now give it for "C#C[C@@](C)(c1ccc(Cl)cc1)c1csc(NC(=O)NC[C@H](O)CO)n1" too.
Reply | false (0)

Ask | Param item: "CN1CCN(Cc2ccc(CNC(=O)Nc3nc(C(C)(C)c4ccc(Br)cc4)cs3)cc2)CC1"
Reply | true (1)

Ask | Now the same for "CC(C)(c1ccc(Br)cc1)c1csc(NC(=O)NCc2cc(N3CCNCC3)ncn2)n1"
Reply | false (0)

Ask | And then C#CC(C)(c1ccc(Cl)cc1)c1csc(NC(=O)N2CCNCC2)n1 (stereo not drawn) , what is it?
Reply | false (0)

Ask | Subsequent entry: "CC(C)(c1ccc(Br)cc1)c1csc(NC(=O)NCc2cnc(NCCN)nc2)n1"
Reply | true (1)

Ask | Now the same for "C#C[C@@](C)(c1ccc(OC)cc1)c1csc(NC(=O)N2CC(CO)C2)n1"
Reply | false (0)

Ask | Entry to check: "C#C[C@@](C)(c1ccc(Cl)cc1)c1csc(NC(=O)NC[C@@H](O)CO)n1"
Reply | false (0)

---

Test system: ALPK1-dependent NFκB reporter gene activation in HEK293 cells stably expressing an NF-kB reporter (G9 cells)
Assay: NFκB gene reporter alkaline phosphatase assay
Assay type: cell-based
Conditions: Homo sapiens, HEK293; read-out: NFkB assay IC50
metric: log10(IC50) (log10 of the value in nM)
Hi team, quick reminder: these entries are log10 of IC50 (nM).

Ask | # lookup: log10(IC50) of COc1ccc(C(C)(C)c2csc(NC(=O)NCCS(N)(=O)=O)n2)cc1 [Example A137]
Reply | 3.29

Ask | What about COc1ccc(C(C)(C)c2csc(NC(=O)NCc3ccc(N4CCNC(C)C4)c(C(N)=O)c3)n2)cc1 (stereo not drawn) [Example A063] ?
Reply | 3.46

Ask | Note, next up: COCCOc1cc(CNC(=O)Nc2nc(C(C)(C)c3ccc(Br)cc3)cs2)ccc1N1CCNCC1 [Example A055]
Reply | 3.67

Ask | And COc1ccc(C(C)(C)c2csc(NC(=O)NCc3cc(F)c(N4CCC(N)C4)c(F)c3)n2)cc1 (stereo not drawn) [Example A201] ?
Reply | 2.72

Ask | Please give the result for C#C[C@@](C)(c1ccc(Br)cc1)c1csc(NC(=O)NCCO)n1 [Example A160] too.
Reply | 2.23

Ask | Try this compound next: CC(C)(c1ccc(Br)cc1)c1csc(NC(=O)NCc2ccc(F)c(Cl)c2)n1 [Example A017]
Reply | 2.99

Ask | Same question, CC(C)(c1ccc(Br)cc1)c1csc(NC(=O)NCc2ccc(C3CCNCC3)c(F)c2)n1 [Example A222] this time
Reply | 2.97

Ask | Repeat with CC(C)(c1ccc(Br)cc1)c1csc(NC(=O)NCCCO)n1 [Example A126]
Reply | 3.47

Ask | Record: CC(C)(c1ccc(Br)cc1)c1csc(NC(=O)NCc2ccc(N3CCC(CN)CC3)cc2)n1 [Example A211]
Reply | 3.41

---

Target: ALPK1 (Homo sapiens (Human), UniProt Q96QP1)
Sequence (Q96QP1 whole entry): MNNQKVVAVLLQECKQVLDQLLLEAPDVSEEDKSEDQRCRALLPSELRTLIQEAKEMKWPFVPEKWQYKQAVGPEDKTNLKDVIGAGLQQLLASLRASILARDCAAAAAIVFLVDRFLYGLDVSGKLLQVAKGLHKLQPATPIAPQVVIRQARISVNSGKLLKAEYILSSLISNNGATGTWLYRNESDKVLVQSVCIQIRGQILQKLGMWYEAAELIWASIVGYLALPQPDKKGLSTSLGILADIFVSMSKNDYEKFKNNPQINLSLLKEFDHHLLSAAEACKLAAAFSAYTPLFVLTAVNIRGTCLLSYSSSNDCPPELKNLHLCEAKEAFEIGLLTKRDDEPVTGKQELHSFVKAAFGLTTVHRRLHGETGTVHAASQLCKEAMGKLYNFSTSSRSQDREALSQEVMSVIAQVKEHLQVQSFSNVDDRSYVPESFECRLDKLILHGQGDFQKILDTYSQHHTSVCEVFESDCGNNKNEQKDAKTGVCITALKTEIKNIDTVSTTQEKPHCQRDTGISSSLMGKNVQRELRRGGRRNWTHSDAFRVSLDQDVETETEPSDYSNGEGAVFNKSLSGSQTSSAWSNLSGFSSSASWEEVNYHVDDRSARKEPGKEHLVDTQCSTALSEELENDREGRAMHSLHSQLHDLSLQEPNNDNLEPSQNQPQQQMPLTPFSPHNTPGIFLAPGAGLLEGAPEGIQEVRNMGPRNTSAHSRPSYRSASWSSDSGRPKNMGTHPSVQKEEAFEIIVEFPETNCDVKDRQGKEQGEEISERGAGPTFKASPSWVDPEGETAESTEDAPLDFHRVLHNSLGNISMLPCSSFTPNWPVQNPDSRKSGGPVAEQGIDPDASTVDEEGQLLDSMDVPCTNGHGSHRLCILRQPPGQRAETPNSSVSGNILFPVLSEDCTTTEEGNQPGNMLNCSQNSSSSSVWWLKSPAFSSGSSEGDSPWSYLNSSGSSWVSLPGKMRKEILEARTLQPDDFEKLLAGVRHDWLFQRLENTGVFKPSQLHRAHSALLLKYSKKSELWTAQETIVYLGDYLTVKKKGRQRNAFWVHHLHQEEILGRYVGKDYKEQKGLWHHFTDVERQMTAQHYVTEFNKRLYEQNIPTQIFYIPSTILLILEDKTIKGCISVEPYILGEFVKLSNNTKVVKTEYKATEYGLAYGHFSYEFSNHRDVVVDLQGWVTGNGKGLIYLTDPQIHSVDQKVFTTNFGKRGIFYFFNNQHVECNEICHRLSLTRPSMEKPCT
Experiment: ALPK1 in vitro kinase assay (HTRF of TIFA phosphorylation)
Format: biochemical
Settings: ALPK1 2 nM, TIFA substrate, ADP-Heptose activator, HTRF readout
Counter-ions that a name gives are not always drawn.
metric: IC50 (nM)
Record the value in nM, omitting the unit from your answer.

Ask | Quick one: IC50 of C#CC(C)(c1ccc(Br)cc1)c1csc(NC(=O)[C@H]2C[C@H](CO)C2)n1 (mixture of isomers) [Example D005] ?
Reply | 98

Ask | Another: COCC(C)(c1ccc(Br)cc1)c1csc(NC(=O)c2c(F)cc(N3CCNCC3)cc2F)n1 (centres unmarked) [Example C027]
Reply | 100

Ask | Try CC(c1ccc(C(=O)Nc2nc(C(C)(C)c3ccc(Br)cc3)cs2)cc1)N1CCNCC1 (centres unmarked) [Example B019] next.
Reply | 98

Ask | Moving on to the next compound: COCCOc1cc(C(=O)Nc2nc(C(C)(C)c3ccc(OC)cc3)cs2)ccc1N1CCNCC1 [Example B057, hydrochloride]
Reply | 103

Ask | Quick one: CC(=O)Nc1nc(C(C)(C)c2ccc(Br)cc2)cs1 [Example D001]
Reply | 100

Ask | What do you have for C#C[C@](C)(c1csc(NC(=O)c2c(F)cc(N3CCNCC3)cc2F)n1)c1ccc(Cl)cc1F (stereo in doubt) [Example C044] ?
Reply | 25

Ask | Again, but for C#C[C@](C)(c1ccc(Cl)cc1)c1csc(NC(=O)c2c(F)cc(N3CCC(N)C3)cc2F)n1 (some centres unmarked) [Example B086]
Reply | 286

Ask | Proceed to C#C[C@@](C)(c1csc(NC(=O)c2c(F)cc(N3CCNCC3)cc2F)n1)c1ccc(Cl)cc1F (stereo in doubt) [Example C043]
Reply | 285

---

Target: ALPK1 (Homo sapiens (Human), UniProt Q96QP1)
Experiment: ALPK1 in vitro kinase assay (HTRF of TIFA phosphorylation)
Format: biochemical
metric: IC50 (µM)
The reply should contain only the number, in µM.

Ask | Any idea what its IC50 is? The compound is COc1ccc(C(C)(C)c2csc(NC(=O)NCCCS(=O)(=O)N3CCNCC3)n2)cc1 [Example A230]
Reply | 0.127

Ask | Repeat with CC(C)(c1ccc(Cl)cc1)c1csc(NC(=O)NCc2cnc(N3CCC(N)C3)nc2)n1 (stereo not drawn) [Example A068]
Reply | 0.269

Ask | Note, next up: CC(C)(c1ccc(F)cc1)c1csc(NC(=O)NCc2ccc(N3CCNCC3)cc2)n1 [Example A047]
Reply | 0.167

Ask | How about COc1ccc(C(C)(C)c2csc(NC(=O)NCc3ccc(N4CCC(O)CC4)cc3)n2)cc1 [Example A139] ?
Reply | 0.261

Ask | Same read-out for C#C[C@@](C)(c1ccc(Br)cc1)c1csc(NC(=O)NCC(O)CO)n1 (stereo in doubt) [Example A278] ?
Reply | 0.624

Ask | And for CNS(=O)(=O)[C@H]1C[C@@H](CNC(=O)Nc2nc(C(C)(C)c3ccc(OC)cc3)cs2)C1 [Example A149] ?
Reply | 0.155

Ask | Please give the result for COc1cc(CNC(=O)Nc2nc(C(C)(C)c3ccc(Br)cc3)cs2)ccc1N1CCNCC1 [Example A220] too.
Reply | 0.044

Ask | Also, CC(C)(c1ccc(Br)cc1)c1csc(NC(=O)NCc2cnc(N3CCNC(=O)C3)nc2)n1 [Example A113] please.
Reply | 0.126

Ask | Also O=C(NCCO)Nc1nc(C2(c3ccc(Br)cc3)CCC2)cs1 [Example A158] ?
Reply | 0.067

Ask | What about this compound? CC(C)(c1ccc(Br)cc1)c1csc(NC(=O)NCc2ccc(OCC(=O)N3CCNCC3)cc2)n1 [Example A033]
Reply | 0.08

Ask | What do you get for CC(C)(c1ccc(Br)cc1)c1csc(NC(=O)NCc2cnc(N3CCNCC3)cn2)n1 [Example A093] ?
Reply | 0.009

Ask | And the next one, C#CC(C)(c1ccc(OC)cc1)c1csc(NC(N)=O)n1 (stereo not drawn) [Example A171] ?
Reply | 0.016

Ask | And then COc1ccc(C(C)(C)c2csc(NC(=O)NCc3cnc(N4CCNCC4)c(F)c3)n2)cc1 [Example A036] , what is it?
Reply | 0.024

Ask | Would you mind doing C#C[C@@](C)(c1ccc(Cl)cc1)c1csc(NC(=O)NC(C)(C)CO)n1 (stereo in doubt) [Example A294] as well?
Reply | 0.285

Ask | Another compound: CC(c1ccc(Br)cc1)c1csc(NC(=O)NCc2ccc(N3CCNCC3)cc2)n1 (stereo not drawn) [Example A044]
Reply | 0.147

Ask | CC(C)(c1ccc(Br)cc1)c1csc(NC(=O)NCc2ccnc(N3CCNCC3)c2)n1 [Example A181] ?
Reply | 0.131

Ask | Entry C#CC(C)(c1ccc(Br)cc1)c1csc(NC(=O)NCCN2CCOCC2)n1 (stereo not drawn) [Example A155] please
Reply | 0.03

Ask | Proceed to COc1ccc(C(C)(C)c2csc(NC(=O)NCc3cnc(N4CCNCC4)c(C(N)=O)c3)n2)cc1 [Example A209]
Reply | 0.043

Ask | Now consider COc1ccc(C(C)(C)c2csc(NC(=O)NCCS(C)(=O)=O)n2)cc1 [Example A013] and answer again.
Reply | 0.316

Ask | Continue with CC(C)(c1ccc(Br)cc1)c1csc(NC(=O)NCc2cnc(N3CCNCC3)c(F)c2)n1 [Example A038]
Reply | 0.03

Ask | Here is the next compound: COc1ccc(C(C)(C)c2csc(NC(=O)NCc3cncnc3)n2)cc1 [Example A104]
Reply | 0.223

Ask | Proceed to CC(C)(c1ccc(Br)cc1)c1csc(NC(=O)NCc2cnc(N3CCC(O)C3)nc2)n1 (stereo not drawn) [Example A079]
Reply | 0.17

Ask | Now consider COc1ccc(C(C)(C)c2csc(NC(=O)NCc3ccc(C(=O)NC4CCN(C)CC4)nc3)n2)cc1 [Example A015] .
Reply | 0.024

Ask | What do you get for COc1ccc(C(C)(C)c2csc(NC(=O)NCc3ccc(NC4CCN(C)CC4)nc3)n2)cc1 [Example A019] ?
Reply | 0.032

Ask | Quick one: COc1ccc(C(C)(C)c2csc(NC(=O)NCc3ccc(C4CCNCC4)c(F)c3)n2)cc1 [Example A224]
Reply | 0.021

Ask | Another compound: CC(C)(c1ccc(Br)cc1)c1csc(NC(=O)NCCF)n1 [Example A020]
Reply | 0.144

Ask | Repeat for the following compound: COc1ccc(C(C)(C)c2csc(NC(=O)NCCCC(=O)NC3CCN(C)CC3)n2)cc1 [Example A070]
Reply | 0.14
